FYI, the data here is from patent US20110118447A1.

Target: binding partner of C5A (XPA23)
Test: Biacore K-off
property measured: fold difference in affinity vs original

| binder | experimental result |
| --- | --- |
| C5A (XPA23) VL A51L (antibody, V domains shown) VH: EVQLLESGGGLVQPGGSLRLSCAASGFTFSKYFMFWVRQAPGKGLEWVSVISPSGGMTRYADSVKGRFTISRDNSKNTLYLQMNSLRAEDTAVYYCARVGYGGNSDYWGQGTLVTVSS VL: DIQMTQSPSSVSASVGDRLTIICRASQDINRWLAWYQQTPGNAPKLLIHSLTSLQSGVPSRFSGSGSGTDFTLTINSLQPEDFATYYCQQADSFPLTFGGGTKVEIK | 0.16 fold |

Query: Which measured fold difference in affinity vs original value corresponds to C5A (XPA23) VL D92L (antibody, V domains shown) VH: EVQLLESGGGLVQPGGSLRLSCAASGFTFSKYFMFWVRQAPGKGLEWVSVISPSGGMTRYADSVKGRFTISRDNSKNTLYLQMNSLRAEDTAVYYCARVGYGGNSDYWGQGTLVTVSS VL: DIQMTQSPSSVSASVGDRLTIICRASQDINRWLAWYQQTPGNAPKLLIHSATSLQSGVPSRFSGSGSGTDFTLTINSLQPEDFATYYCQQALSFPLTFGGGTKVEIK ?
Reply: 0.14 fold

Query: Given the binder C5A (XPA23) VL H49K (antibody, V domains shown) VH: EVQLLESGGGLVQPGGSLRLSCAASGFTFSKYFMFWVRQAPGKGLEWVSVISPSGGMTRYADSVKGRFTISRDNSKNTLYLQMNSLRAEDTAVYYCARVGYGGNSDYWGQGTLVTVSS VL: DIQMTQSPSSVSASVGDRLTIICRASQDINRWLAWYQQTPGNAPKLLIKSATSLQSGVPSRFSGSGSGTDFTLTINSLQPEDFATYYCQQADSFPLTFGGGTKVEIK , what is its reported fold difference in affinity vs original?
Reply: 0.1 fold

Query: Sample C5A (XPA23) VL S93A (antibody, V domains shown) VH: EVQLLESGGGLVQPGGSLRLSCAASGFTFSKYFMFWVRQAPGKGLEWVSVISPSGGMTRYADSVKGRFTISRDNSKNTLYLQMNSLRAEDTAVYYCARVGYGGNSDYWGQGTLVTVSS VL: DIQMTQSPSSVSASVGDRLTIICRASQDINRWLAWYQQTPGNAPKLLIHSATSLQSGVPSRFSGSGSGTDFTLTINSLQPEDFATYYCQQADAFPLTFGGGTKVEIK — what was its fold difference in affinity vs original?
Reply: 1.16 fold

Query: Reported fold difference in affinity vs original for C5A (XPA23) VL H49S (antibody, V domains shown) VH: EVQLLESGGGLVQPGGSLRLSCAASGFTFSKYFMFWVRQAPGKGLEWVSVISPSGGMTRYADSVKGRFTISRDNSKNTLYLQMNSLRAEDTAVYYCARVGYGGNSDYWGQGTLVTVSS VL: DIQMTQSPSSVSASVGDRLTIICRASQDINRWLAWYQQTPGNAPKLLISSATSLQSGVPSRFSGSGSGTDFTLTINSLQPEDFATYYCQQADSFPLTFGGGTKVEIK : what is it?
Reply: 0.14 fold
